B1: TRIM63 (parent)
chain: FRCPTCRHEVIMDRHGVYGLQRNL

# Variants of: B1
# ASSAY INFO: protein stability index of a GFP-peptide fusion (GPS, HEK-293T) (PSI 1-6); higher = more stable;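 further: lentivirally expressed fusions sorted by FACS into six bins by GFP to DsRed ratio, PSI derived from sequencing read proportions per bin multiplied by bin number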
# ASSAY CONDITIONS: c terminus: a fixed tail appended
QUANTITY MEASURED: protein stability index
// return just the number, without any unit appended

Any idea what protein stability index was measured for `F1M` ? 2.72

Likewise for `Q21H` ? 1.86

Likewise for `E9C` ? 2.56

Likewise for `G19R` ? 2.31

Likewise for `R14K` ? 2.07

Likewise for `C6M` ? 2.06

Likewise for `V10L` ? 2.73

Likewise for `I11A` ? 1.69

Likewise for `L20H` ? 2.75

Likewise for `R2V` ? 1.86

Likewise for `R14A` ? 1.99

Likewise for `E9M` ? 2.06
